Test system: K9023 Zymoseptoria tritici CYP51 L50S V136C S188N A379G I381V YG459 S524T
Assay: in vitro antifungal test, Z. tritici spore suspension in PDB
Assay type: cell-based
Conditions: isolate K9023, 3rd listed row; growth at 3 days post exposure; average of two replicates
Procedure: A panel of 16 Zymoseptoria tritici isolates was subjected to in vitro antifungal tests. […] The half maximal effective concentration (EC50) of the inhibitors were calculated based on growth responses of Z. tritici at 3 days post exposure to the different concentrations of the […] using a linear regression. […]
Readout Label: EC50 (ppm)
One number for each entry, in ppm.

Answered examples (5):
[[record]]
compound = "COC(=O)C(O)(Cn1cncn1)c1ccc(Oc2ccc(Cl)cc2)cc1Cl (single isomer, unassigned; (+)) [(+)-enantiomer of Compound I-1]"
assayed_system = "K9023 Zymoseptoria tritici CYP51 L50S V136C S188N A379G I381V YG459 S524T"
readout_label = "EC50 (ppm)"
numeric_readout = 19

[[record]]
compound = "COC(=O)C(O)(Cn1cncn1)c1ccc(Oc2ccc(Cl)cc2)cc1Cl (racemic) [Racemate Compound I-1]"
assayed_system = "K9023 Zymoseptoria tritici CYP51 L50S V136C S188N A379G I381V YG459 S524T"
readout_label = "EC50 (ppm)"
numeric_readout = 0.4

[[record]]
compound = "COC(=O)C(O)(Cn1cncn1)c1ccc(Oc2ccc(Cl)cc2)cc1C(F)(F)F (single isomer, unassigned; (+)) [(+)-enantiomer of Compound I-2]"
assayed_system = "K9023 Zymoseptoria tritici CYP51 L50S V136C S188N A379G I381V YG459 S524T"
readout_label = "EC50 (ppm)"
numeric_readout = 9

[[record]]
compound = "COC(=O)C(O)(Cn1cncn1)c1ccc(Oc2ccc(Cl)cc2)cc1Cl (single isomer, unassigned; (-)) [(−)-enantiomer of Compound I-1]"
assayed_system = "K9023 Zymoseptoria tritici CYP51 L50S V136C S188N A379G I381V YG459 S524T"
readout_label = "EC50 (ppm)"
numeric_readout = 0.2

[[record]]
compound = "COC(=O)C(O)(Cn1cncn1)c1ccc(Oc2ccc(Cl)cc2)cc1C(F)(F)F (racemic) [Racemate Compound I-2]"
assayed_system = "K9023 Zymoseptoria tritici CYP51 L50S V136C S188N A379G I381V YG459 S524T"
readout_label = "EC50 (ppm)"
numeric_readout = 0.3


Next:
[ask] Query: EC50 (ppm); subject: COC(=O)C(O)(Cn1cncn1)c1ccc(Oc2ccc(Cl)cc2)cc1C(F)(F)F (single isomer, unassigned; (-)) [(−)-enantiomer of Compound I-2]
[reply] 0.2
